test system: MCF-7; assay: MTT cytotoxicity assay, 72 h; format: cell-based, human; details: MCF-7, breast
measurement_label: IC50

Examples with their reported IC50 follow.
N.N.[Cl][Pt][Cl] [cisplatin, cis-diamminedichloroplatinum(II), reference compound] = 8.37 µM
O=C1[O][Pt]2([O]C(=O)C(Cl)Cl)([O]C(=O)C(Cl)Cl)([NH]C3CCC(CC3)[NH]2)[O]C1=O = 12.6 µM
O=C1[O][Pt]2([OH])([OH])([NH]C3CCC(CC3)[NH]2)[O]C1=O = 112 µM

Below: the item to evaluate.
(Q) Lab note: need IC50 for O=C1[O][Pt-2]2([NH2+]C3CCCC[C@H]3[NH2+]2)[O]C1=O (stereo partly shown) [oxaliplatin, reference compound] on MCF-7, anyone have it?
(A) 3.36 µM

---

# maps each entry to its IC50
test system: LoVo colon cancer cells; experiment: MTT cytotoxicity assay, cross-resistance profile; type: cell-based, human; details: 72 h
Report as: number unit

O=C1[O][Pt]2([OH])([OH])([NH]C3CCC(CC3)[NH]2)[O]C1=O = 61.2 µM
N.N.[Cl][Pt][Cl] [cisplatin, cis-diamminedichloroplatinum(II), reference compound] = 7.63 µM

(Q) Query: IC50; subject: `O=C1[O][Pt]2([O]C(=O)C(Cl)Cl)([O]C(=O)C(Cl)Cl)([NH]C3CCC(CC3)[NH]2)[O]C1=O`
(A) 9.08 µM

---

tested on: DLD-1; experiment: MTT cytotoxicity assay, 72 h; format: cell-based, human; conditions: DLD-1, colon
# maps each entry to its IC50
// note: answer is a bare numeric in µM

Examples with their reported IC50 follow.
O=C1[O][Pt]2([O]C(=O)C(Cl)Cl)([O]C(=O)C(Cl)Cl)([NH]C3CCC(CC3)[NH]2)[O]C1=O = 8.26
N.N.[Cl][Pt][Cl] [cisplatin, cis-diamminedichloroplatinum(II), reference compound] = 8.01
O=C1[O][Pt]2([OH])([OH])([NH]C3CCC(CC3)[NH]2)[O]C1=O = 82.2

Below: the item to evaluate.
(Q) Query: IC50; subject: O=C1[O][Pt-2]2([NH2+]C3CCCC[C@H]3[NH2+]2)[O]C1=O (stereo partly shown) [oxaliplatin, reference compound]
(A) 5.81

---

# maps each entry to its IC50
system: A431; test: MTT cytotoxicity assay, 72 h; assay type: cell-based, human; details: A431, cervix
// note: answer is a bare numeric in µM

Examples with their reported IC50 follow.
N.N.[Cl][Pt][Cl] [cisplatin, cis-diamminedichloroplatinum(II), reference compound] = 1.96
O=C1[O][Pt]2([OH])([OH])([NH]C3CCC(CC3)[NH]2)[O]C1=O = 59.5
O=C1[O][Pt]2([O]C(=O)C(Cl)Cl)([O]C(=O)C(Cl)Cl)([NH]C3CCC(CC3)[NH]2)[O]C1=O = 7.41

Below: the item to evaluate.
(Q) Query: IC50; subject: O=C1[O][Pt-2]2([NH2+]C3CCCC[C@H]3[NH2+]2)[O]C1=O (stereo partly shown) [oxaliplatin, reference compound]
(A) 3.69
